system: MvaT; assay: PBM 8-mer E-score (mean of HK and ME arrays) (E-score (dimensionless, -0.5 to 0.5)); higher = stronger relative binding preference
Over roughly 33,000 sequences, “E-score (dimensionless, -0.5 to 0.5)” has its median near -0.058; the highest 2% begin near 0.35. The sample holds the highest values, similar sequences and a random draw of the others, so the mix is not that of the screen.
Entry flag: 1.0 if PBM 8-mer E-score reaches 0.2; 0.0 if it does not.

sequence_text=GGAATTAA system_under_test=MvaT category_label=1.0
sequence_text=AATTAACT system_under_test=MvaT category_label=1.0
sequence_text=GCAGTATA system_under_test=MvaT category_label=1.0
sequence_text=AAATGTAA system_under_test=MvaT category_label=1.0
sequence_text=ACTCCTGA system_under_test=MvaT category_label=0.0
sequence_text=ACAGCATA system_under_test=MvaT category_label=0.0
sequence_text=AGTATATA system_under_test=MvaT category_label=1.0
sequence_text=TCGCCAAA system_under_test=MvaT category_label=0.0
sequence_text=GAGTAGAA system_under_test=MvaT category_label=0.0
sequence_text=GTATATAC system_under_test=MvaT category_label=1.0
sequence_text=ACATGTAA system_under_test=MvaT category_label=1.0
sequence_text=TACATTAA system_under_test=MvaT category_label=1.0
sequence_text=CATATTCA system_under_test=MvaT category_label=0.0
sequence_text=TCAATTAA system_under_test=MvaT category_label=1.0
sequence_text=CGTATACA system_under_test=MvaT category_label=0.0
sequence_text=AACATTAT system_under_test=MvaT category_label=1.0
sequence_text=GGTATATA system_under_test=MvaT category_label=1.0
sequence_text=GGATAAAA system_under_test=MvaT category_label=1.0
sequence_text=CAATAAAA system_under_test=MvaT category_label=1.0
sequence_text=CCCTTCGC system_under_test=MvaT category_label=0.0
sequence_text=ACTATTAC system_under_test=MvaT category_label=1.0
sequence_text=ATATACGC system_under_test=MvaT category_label=1.0
sequence_text=CTAATGCA system_under_test=MvaT category_label=0.0
sequence_text=AGTATAGA system_under_test=MvaT category_label=0.0
sequence_text=TAAAAAAA system_under_test=MvaT category_label=1.0
sequence_text=CTATAGAG system_under_test=MvaT category_label=0.0
sequence_text=GGCGATAA system_under_test=MvaT category_label=0.0
sequence_text=ATTATTAG system_under_test=MvaT category_label=1.0
sequence_text=TCATGTAA system_under_test=MvaT category_label=0.0
sequence_text=CGTATATA system_under_test=MvaT category_label=1.0
sequence_text=GACGTACA system_under_test=MvaT category_label=0.0
sequence_text=AGTATGTG system_under_test=MvaT category_label=1.0
sequence_text=ATAATGCG system_under_test=MvaT category_label=1.0
sequence_text=CCAGGTCA system_under_test=MvaT category_label=0.0
sequence_text=AAGTGACT system_under_test=MvaT category_label=0.0
sequence_text=ATAGAGAG system_under_test=MvaT category_label=0.0
sequence_text=AAGTTATC system_under_test=MvaT category_label=1.0
sequence_text=CGAGATCA system_under_test=MvaT category_label=0.0
sequence_text=TAGGGTAA system_under_test=MvaT category_label=0.0
sequence_text=GGCCAGAA system_under_test=MvaT category_label=0.0
sequence_text=CAGGCTCG system_under_test=MvaT category_label=0.0
sequence_text=GGATATAC system_under_test=MvaT category_label=1.0
sequence_text=ATTATTCG system_under_test=MvaT category_label=1.0
sequence_text=CTATATAC system_under_test=MvaT category_label=1.0
sequence_text=AGGTGACT system_under_test=MvaT category_label=0.0
sequence_text=AGTAATAA system_under_test=MvaT category_label=1.0
sequence_text=CCATATAC system_under_test=MvaT category_label=0.0
sequence_text=AAATGTAC system_under_test=MvaT category_label=0.0
sequence_text=TGCATCCA system_under_test=MvaT category_label=0.0
sequence_text=GGTATAGA system_under_test=MvaT category_label=0.0
sequence_text=AATAAAGC system_under_test=MvaT category_label=1.0
sequence_text=CTAATGTA system_under_test=MvaT category_label=1.0
sequence_text=GGAATTAC system_under_test=MvaT category_label=0.0
sequence_text=TCCTAACA system_under_test=MvaT category_label=0.0
sequence_text=ATATATAC system_under_test=MvaT category_label=1.0
sequence_text=GAATAAAC system_under_test=MvaT category_label=0.0
sequence_text=AATTGTAA system_under_test=MvaT category_label=1.0
sequence_text=GTATAGAA system_under_test=MvaT category_label=0.0
sequence_text=AGCACAAA system_under_test=MvaT category_label=0.0
sequence_text=GAATAAAA system_under_test=MvaT category_label=1.0
sequence_text=CCGCGGCG system_under_test=MvaT category_label=0.0
sequence_text=CCATGTAA system_under_test=MvaT category_label=0.0
sequence_text=TGGCGACA system_under_test=MvaT category_label=0.0
sequence_text=AATTAACC system_under_test=MvaT category_label=1.0
sequence_text=ATTTTTTC system_under_test=MvaT category_label=0.0
sequence_text=ATCTATAC system_under_test=MvaT category_label=0.0
sequence_text=AAATCATG system_under_test=MvaT category_label=0.0
sequence_text=CGAATTAA system_under_test=MvaT category_label=1.0
sequence_text=GACATTAA system_under_test=MvaT category_label=1.0
sequence_text=CTTAATAC system_under_test=MvaT category_label=1.0
sequence_text=GAAACGGA system_under_test=MvaT category_label=0.0
sequence_text=CGTATATC system_under_test=MvaT category_label=0.0
sequence_text=AATTAACG system_under_test=MvaT category_label=1.0
sequence_text=CTCTATAC system_under_test=MvaT category_label=0.0
sequence_text=CATATTAA system_under_test=MvaT category_label=1.0
sequence_text=CGCCCCTC system_under_test=MvaT category_label=0.0
sequence_text=GCCGTCAC system_under_test=MvaT category_label=0.0
sequence_text=GATATTAC system_under_test=MvaT category_label=1.0
sequence_text=ATAATGCA system_under_test=MvaT category_label=1.0
sequence_text=CTTCATTA system_under_test=MvaT category_label=1.0
sequence_text=AGATAGAT system_under_test=MvaT category_label=0.0
sequence_text=AGACCTCG system_under_test=MvaT category_label=0.0
sequence_text=CTTATTGC system_under_test=MvaT category_label=0.0
sequence_text=GGAGTCAA system_under_test=MvaT category_label=0.0
sequence_text=CCTGGTTC system_under_test=MvaT category_label=0.0
sequence_text=GAGATTAA system_under_test=MvaT category_label=1.0
sequence_text=AAATGTAG system_under_test=MvaT category_label=0.0
sequence_text=CAATGTCC system_under_test=MvaT category_label=0.0
sequence_text=AAGGGTAA system_under_test=MvaT category_label=0.0
sequence_text=AATCTTGT system_under_test=MvaT category_label=0.0
